Origin of values: the supplement of paper PMC10567573

B1: POMT2 (parent)
chain: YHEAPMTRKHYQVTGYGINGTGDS

# Variants of: B1
# PROTOCOL_NOTES: protein stability index of a GFP-peptide fusion (GPS, HEK-293T) (PSI 1-6); higher = more stable;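 further: lentivirally expressed fusions sorted by FACS into six bins by GFP to DsRed ratio, PSI derived from sequencing read proportions per bin multiplied by bin number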
# PARTICULARS: c terminus: a fixed tail appended
Classification field: enter satisfied for protein stability index values not below 2, not satisfied for values below it.

>>> cat("Y16G")
"satisfied"
>>> cat("G17P")
"satisfied"
>>> cat("G15W")
"satisfied"
>>> cat("G15E")
"satisfied"
>>> cat("R8S")
"satisfied"
>>> cat("Y1P")
"satisfied"
>>> cat("D23Y")
"not satisfied"
>>> cat("K9V")
"satisfied"
>>> cat("Q12E")
"satisfied"
>>> cat("S24K")
"satisfied"
>>> cat("P5Q")
"satisfied"
>>> cat("G20Y")
"satisfied"
>>> cat("Y11T")
"satisfied"
>>> cat("S24P")
"satisfied"
>>> cat("M6G")
"satisfied"
>>> cat("N19G")
"satisfied"
>>> cat("Q12R")
"not satisfied"
>>> cat("R8M")
"satisfied"
>>> cat("D23R")
"not satisfied"
>>> cat("D23G")
"satisfied"
>>> cat("T21K")
"satisfied"
>>> cat("I18S")
"satisfied"
>>> cat("R8Y")
"satisfied"
>>> cat("G20A")
"satisfied"
>>> cat("K9P")
"satisfied"
>>> cat("T7K")
"not satisfied"
>>> cat("R8H")
"satisfied"
>>> cat("P5W")
"not satisfied"
>>> cat("M6A")
"satisfied"
>>> cat("T7Y")
"not satisfied"
>>> cat("S24R")
"satisfied"
>>> cat("P5A")
"satisfied"
>>> cat("T7Q")
"satisfied"
>>> cat("H2L")
"satisfied"
>>> cat("G15H")
"satisfied"
>>> cat("E3M")
"not satisfied"
>>> cat("P5F")
"satisfied"
>>> cat("T7E")
"satisfied"
>>> cat("Y1W")
"satisfied"
>>> cat("Y11K")
"satisfied"
>>> cat("H10N")
"satisfied"
>>> cat("A4N")
"not satisfied"
